protocol-text: in vivo
run-parameters: rat, iv
Here, each record is paired with measured LD50 data.

{"compound": "CCCC(Cc1ccccc1)NCCCO (stereo not drawn)", "LD50 / mg/kg": 50}
{"compound": "CCCNC(CCC)Cc1ccccc1 (stereo not drawn)", "LD50 / mg/kg": 27}
{"compound": "CCCCC(Cc1ccccc1)NC(C)Cc1ccccc1 (stereo not drawn)", "LD50 / mg/kg": 16}
{"compound": "CCCC(Cc1ccccc1)NC (stereo not drawn)", "LD50 / mg/kg": 18}
{"compound": "CCCNC(CC)Cc1ccccc1 (stereo not drawn)", "LD50 / mg/kg": 40}
{"compound": "CCNC(CC)Cc1ccccc1 (stereo not drawn)", "LD50 / mg/kg": 46}

====

protocol-text: in vivo
run-parameters: rat, sc
Here, each record is paired with measured LD50 data.

{"compound": "COCCNC(C)Cc1ccccc1 (centres unmarked)", "LD50": "> 200 mg/kg"}
{"compound": "CCCC(Cc1ccccc1)NCCCO (centres unmarked)", "LD50": "> 200 mg/kg"}
{"compound": "CCCNC(Cc1ccccc1)Cc1ccccc1.Cl", "LD50": "> 150 mg/kg"}
{"compound": "CCCCCCC(Cc1ccccc1)NCCC (centres unmarked)", "LD50": "> 50 mg/kg"}
{"compound": "CCCCC(Cc1ccccc1)NC(C)Cc1ccccc1 (centres unmarked)", "LD50": "> 25 mg/kg"}
